system.tested: MerTK (Homo sapiens)
Construct: Seed HUVECs (10K cells/well) in EBM-2 complete media
Sequence (Q12866 21-999): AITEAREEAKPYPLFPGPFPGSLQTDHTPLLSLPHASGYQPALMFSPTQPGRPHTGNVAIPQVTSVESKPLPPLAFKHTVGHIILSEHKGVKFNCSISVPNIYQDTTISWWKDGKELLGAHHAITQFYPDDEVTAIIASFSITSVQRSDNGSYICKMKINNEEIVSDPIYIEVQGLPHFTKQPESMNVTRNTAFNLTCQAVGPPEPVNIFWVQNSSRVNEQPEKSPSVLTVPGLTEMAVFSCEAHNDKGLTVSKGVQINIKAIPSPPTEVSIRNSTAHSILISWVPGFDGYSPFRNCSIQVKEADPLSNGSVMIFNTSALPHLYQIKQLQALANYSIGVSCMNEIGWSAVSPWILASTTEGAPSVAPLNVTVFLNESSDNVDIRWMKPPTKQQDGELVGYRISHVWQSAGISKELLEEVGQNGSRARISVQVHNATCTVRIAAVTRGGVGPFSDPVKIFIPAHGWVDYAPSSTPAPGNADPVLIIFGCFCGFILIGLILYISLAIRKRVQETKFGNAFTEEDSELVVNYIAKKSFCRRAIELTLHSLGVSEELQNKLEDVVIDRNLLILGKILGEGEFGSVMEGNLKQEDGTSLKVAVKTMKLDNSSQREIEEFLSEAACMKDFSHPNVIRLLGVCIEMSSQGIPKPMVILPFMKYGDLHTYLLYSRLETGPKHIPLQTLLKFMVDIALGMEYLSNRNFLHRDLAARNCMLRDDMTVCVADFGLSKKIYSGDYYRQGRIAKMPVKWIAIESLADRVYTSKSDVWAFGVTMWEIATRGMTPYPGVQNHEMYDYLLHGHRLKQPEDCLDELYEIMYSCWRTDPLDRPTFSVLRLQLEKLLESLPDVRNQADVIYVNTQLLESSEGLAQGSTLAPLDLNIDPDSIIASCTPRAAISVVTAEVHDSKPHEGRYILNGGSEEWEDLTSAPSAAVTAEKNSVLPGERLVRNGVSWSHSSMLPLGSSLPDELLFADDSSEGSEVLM
test.description: Phospho-AKT HTRF, HUVEC, Mer-XL, 8 pt (pAKT HTRF-HUVEC assay, anti-human MerTK-XL stimulation)
applied.conditions: HUVEC cells, pAkt(Ser473) HTRF, anti-human MerTK-XL stimulation 1 ug/mL 10 minutes
experimental.readout: EC50 (nM)

Below, each entry is followed by its recorded EC50 result.
> print(dat)
                                    molecule         system.tested  experimental.readout  quantitative.result
 1  COc1cc2c(Oc3ccc(NC(=O)c4nc(-c5ccccc5)c5c(n4)C4CCN5CC4)nc3)ccnc2cc1OCCCN1CCOCC1 [Compound 35]  MerTK (Homo sapiens)                  EC50                    5
 2  COc1cc2c(Oc3ccc(NC(=O)c4cc(N5CCC(F)(F)CC5)ccn4)nc3)ccnc2cc1OCCCN1CCOCC1  MerTK (Homo sapiens)                  EC50                 80.6
 3  COc1cc2c(Oc3ccc(NC(=O)c4ncc(N5CCCCC5)s4)nc3)ccnc2cc1OCCCN1CCOCC1  MerTK (Homo sapiens)                  EC50                  119
 4  COc1cc2c(Oc3ccc(NC(=O)c4cc(-c5ccccc5)c5c(n4)C4CCN5CC4)nc3)ccnc2cc1OCCCN1CCOCC1 [Compound 7]  MerTK (Homo sapiens)                  EC50                   10
 5  COc1cc2c(Oc3ccc(NC(=O)c4cc(N5CC6(COC6)C5)ccn4)nc3)ccnc2cc1OCCCN1CCOCC1  MerTK (Homo sapiens)                  EC50                  505
 6  COc1cc2c(Oc3ccc(NC(=O)c4csc(-c5ccccc5)n4)nc3)ccnc2cc1OCCCN1CCOCC1  MerTK (Homo sapiens)                  EC50                 47.2
 7  COc1cc2nccc(Oc3ccc(NC(=O)c4nc(-c5ccccc5)c5c(n4)C4CCN5CC4)nc3)c2cc1OC  MerTK (Homo sapiens)                  EC50                  7.7
 8  COc1cc2c(Oc3ccc(NC(=O)c4cc(C)ccn4)nc3)ccnc2cc1OCCCN1CCOCC1  MerTK (Homo sapiens)                  EC50                  162
 9  COc1cc2c(Oc3ccc(NC(=O)c4nccc(-c5ccccc5)n4)nc3)ccnc2cc1OCCCN1CCOCC1  MerTK (Homo sapiens)                  EC50                  3.9
10  COc1cc2c(Oc3ccc(NC(=O)c4nc(-c5ccccc5)c5c(n4)C4CCN5CC4)cc3F)ccnc2cc1OCCCN1CCOCC1  MerTK (Homo sapiens)                  EC50                  9.5

(1) COc1cc2c(Oc3ccc(NC(=O)c4cc(N5CCC(O)CC5)ccn4)nc3)ccnc2cc1OCCCN1CCOCC1 [Compound 11]
(2) COc1cc2c(Oc3ccc(NC(=O)c4cccc(N5CCC(F)(F)CC5)n4)nc3)ccnc2cc1OCCCN1CCOCC1
(3) COc1cc2c(Oc3ccc(NC(=O)c4cc(N5CCCC5)ccn4)nc3)ccnc2cc1OCCCN1CCOCC1
stdin: Please list these in order of increasing EC50. Thank you! Lab note: final answer is the ordered label list.
stdout: 2, 3, 1
(2: 6.1 nM, 3: 27.9 nM, 1: 86 nM)
